Where these numbers come from: patent US12258336B2

Listing of recorded IC50 by entry.
Biological target: Recombinant human AOC1/DAO protein (Homo sapiens)
Sequence (P19801 20-751): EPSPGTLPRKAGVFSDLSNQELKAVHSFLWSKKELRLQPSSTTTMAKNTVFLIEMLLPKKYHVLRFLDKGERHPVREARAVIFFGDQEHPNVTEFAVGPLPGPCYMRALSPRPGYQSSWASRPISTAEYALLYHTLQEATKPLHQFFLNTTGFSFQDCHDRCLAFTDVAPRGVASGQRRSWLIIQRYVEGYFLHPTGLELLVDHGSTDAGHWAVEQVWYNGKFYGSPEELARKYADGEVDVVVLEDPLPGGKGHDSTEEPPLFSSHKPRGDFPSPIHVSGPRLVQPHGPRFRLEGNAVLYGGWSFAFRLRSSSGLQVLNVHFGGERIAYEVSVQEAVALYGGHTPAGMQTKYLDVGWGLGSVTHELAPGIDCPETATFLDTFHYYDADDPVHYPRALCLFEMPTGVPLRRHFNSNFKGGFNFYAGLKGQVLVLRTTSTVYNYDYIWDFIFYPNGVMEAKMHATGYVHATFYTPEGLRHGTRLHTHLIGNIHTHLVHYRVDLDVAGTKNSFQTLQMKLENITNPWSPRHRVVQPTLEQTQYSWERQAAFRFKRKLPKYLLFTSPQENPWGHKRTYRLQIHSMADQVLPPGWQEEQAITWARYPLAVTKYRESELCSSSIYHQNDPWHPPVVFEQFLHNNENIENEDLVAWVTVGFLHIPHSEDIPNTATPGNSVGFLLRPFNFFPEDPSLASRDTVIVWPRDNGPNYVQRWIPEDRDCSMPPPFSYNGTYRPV
Test: Inhibitory activity on AOC1 (Amplex UltraRed)
Method: Recombinant human AOC1/DAO protein was purchased from R&D systems (Cat: 8298-AO). Amplex UltraRed was purchased from Thermo scientific (Cat: A36006). HRP (Cat: P8250) and Putrescine (Cat: V900377) were purchased from Sigma. […] The final concentration of test compound in 10 μL reaction system was 100 μM to 5 nM when AOC1 was detected. […] Synergy Neo 2 was used to read the plate for detection. […]

These recorded examples may help you get a feel for the data.
NC/C(=C/F)COc1cnc(N2CCN(C3COC3)CC2)nc1 [Example 8]	> 10 µM
NC/C(=C\F)COc1cnc(N2CC3CCC(C2)N3C2COC2)nc1 [Example 6]	> 10 µM
CC1(C)CN(c2ncc(OC/C(=C/F)CN)cn2)CCN1C1COC1 [Example 10]	> 10 µM
NC/C(=C\F)COc1cnc(N2CCC3(CC2)COC3)nc1 [Example 3]	0.1 to 10 µM
N#Cc1cc(OC/C(=C/F)CN)cnc1N1CCN(C2COC2)CC1 [Example 7]	> 10 µM
CC1CN(c2ncc(OC/C(=C/F)CN)cn2)CC(C)N1C1COC1 (centres unmarked) [Example 1]	> 10 µM
NC/C(=C\F)COc1cnc(N2CCN(c3cnc(N4CCN(C5COC5)CC4)nc3)CC2)nc1 [Example 9]	0.1 to 10 µM
CC1(C)CN(C2COC2)CCN1c1ncc(OC/C(=C/F)CN)cn1 [Example 5]	> 10 µM
COC1CC2CC1CN2c1ncc(OC/C(=C/F)CN)cn1 (centres unmarked) [Example 2]	0.1 to 10 µM
COC1CC2CCC(C1)N2c1ncc(OC/C(=C/F)CN)cn1 (centres unmarked) [Example 12]	> 10 µM

Hello, I am looking for reported IC50 with Recombinant human AOC1/DAO protein (Homo sapiens) for NC/C(=C\F)COc1cnc(N2CCN(C3COC3)CC2)nc1 [Example 4] . Could you help? > 10 µM

====

Listing of recorded IC50 by entry.
target: Recombinant human MAO-B (Homo sapiens, UniProt P27338); experiment: Inhibitory activity on MAO-B
Sequence (P27338 whole entry): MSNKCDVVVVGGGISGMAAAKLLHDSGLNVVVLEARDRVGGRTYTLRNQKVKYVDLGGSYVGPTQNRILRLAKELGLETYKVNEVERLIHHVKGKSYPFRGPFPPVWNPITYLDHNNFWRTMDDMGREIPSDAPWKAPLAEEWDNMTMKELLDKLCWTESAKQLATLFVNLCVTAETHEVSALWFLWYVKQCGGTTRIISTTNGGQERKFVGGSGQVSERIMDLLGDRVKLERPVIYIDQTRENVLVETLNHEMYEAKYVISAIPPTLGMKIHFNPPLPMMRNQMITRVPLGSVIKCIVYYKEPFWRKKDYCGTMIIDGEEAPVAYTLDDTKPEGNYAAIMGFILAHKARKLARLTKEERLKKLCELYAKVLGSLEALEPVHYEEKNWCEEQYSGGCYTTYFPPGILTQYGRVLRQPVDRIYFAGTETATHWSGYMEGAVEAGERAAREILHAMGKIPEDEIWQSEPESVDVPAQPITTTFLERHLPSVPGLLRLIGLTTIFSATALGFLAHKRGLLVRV

Hello, I am looking for reported IC50 with Recombinant human MAO-B (Homo sapiens, UniProt P27338) for NC/C(=C\F)COc1cnc(N2CC3(COC3)C2)nc1 . Could you help? > 20 µM

Hello, I am looking for reported IC50 with Recombinant human MAO-B (Homo sapiens, UniProt P27338) for CC1CN(c2ncc(OC/C(=C/F)CN)cn2)CC(C)N1C1COC1 (centres unmarked) . Could you help? > 20 µM

Hello, I am looking for reported IC50 with Recombinant human MAO-B (Homo sapiens, UniProt P27338) for NC/C(=C\F)COc1cnc(N2CCN(C3COC3)CC2)nc1 . Could you help? > 20 µM

Hello, I am looking for reported IC50 with Recombinant human MAO-B (Homo sapiens, UniProt P27338) for N#Cc1cc(OC/C(=C/F)CN)cnc1N1CCN(C2COC2)CC1 . Could you help? 5 to 20 µM

Hello, I am looking for reported IC50 with Recombinant human MAO-B (Homo sapiens, UniProt P27338) for NC/C(=C\F)COc1cnc(N2CC3CCC(C2)N3C2COC2)nc1 . Could you help? > 20 µM

====

Molecular target: Recombinant human MAO-A (Homo sapiens, UniProt P21397)
Sequence (P21397 whole entry): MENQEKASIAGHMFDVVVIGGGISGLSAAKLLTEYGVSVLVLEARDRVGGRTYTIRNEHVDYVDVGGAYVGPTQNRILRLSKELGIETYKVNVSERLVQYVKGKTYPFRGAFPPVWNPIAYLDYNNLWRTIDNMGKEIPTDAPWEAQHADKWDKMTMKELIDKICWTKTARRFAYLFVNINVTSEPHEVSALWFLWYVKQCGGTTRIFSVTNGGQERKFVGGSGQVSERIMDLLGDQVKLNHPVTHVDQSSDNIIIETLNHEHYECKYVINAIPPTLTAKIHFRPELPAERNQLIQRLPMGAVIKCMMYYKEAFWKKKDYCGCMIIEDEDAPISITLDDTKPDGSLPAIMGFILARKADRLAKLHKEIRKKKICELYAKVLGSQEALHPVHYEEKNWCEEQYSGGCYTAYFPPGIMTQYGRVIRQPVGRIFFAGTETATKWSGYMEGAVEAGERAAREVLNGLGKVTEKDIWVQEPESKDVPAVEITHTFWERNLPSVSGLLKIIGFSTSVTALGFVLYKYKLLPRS
Test: Inhibitory activity on MAO-A
Protocol: Recombinant human MAO-A and MAO-B protein was purchased from Sigma (M7316, M7441). Other reagents are the same as Biological Test Example 1. The final concentration of test compound in 10 μL reaction system was 100 μM to 5 nM when MAO-A and MAO-B were detected. The final concentrations of MAO-A and MAO-B protein in 10 μL reaction system were 70 nM and 300 nM, respectively, while other reaction conditions were the same as those in Biological Test Example 1. […]
pIC50: −log10 of the molar value.
Listing of recorded pIC50 by entry.

These recorded examples may help you get a feel for the data.
COC1CC2CC1CN2c1ncc(OC/C(=C/F)CN)cn1 (stereo not drawn) [Example 2]	4.00 to 5.70
N#Cc1cc(OC/C(=C/F)CN)cnc1N1CCN(C2COC2)CC1 [Example 7]	< 4.00
NC/C(=C\F)COc1cnc(N2CC3CCC(C2)N3C2COC2)nc1 [Example 6]	< 4.00
NC/C(=C\F)COc1cnc(N2CCN(c3cnc(N4CCN(C5COC5)CC4)nc3)CC2)nc1 [Example 9]	< 4.00
NC/C(=C\F)COc1cnc(N2CCN(C3COC3)CC2)nc1 [Example 4]	< 4.00

Next, consider the following compound.
May I ask what pIC50 has been recorded for COC1CC2CCC(C1)N2c1ncc(OC/C(=C/F)CN)cn1 (stereo not drawn) [Example 12] ? 4.00 to 5.70

====

Listing of recorded IC50 by entry.
target: Recombinant human AOC2 protein (Homo sapiens, UniProt O75106); construct: Eli Lilly (provided, not a catalogue product); test: Inhibitory activity on AOC2

These recorded examples may help you get a feel for the data.
NC/C(=C\F)COc1cnc(N2CCC3(CC2)COC3)nc1 [Example 3]	> 1 µM
NC/C(=C\F)COc1cnc(N2CCN(C3COC3)CC2)nc1 [Example 4]	> 1 µM
NC/C(=C\F)COc1cnc(N2CCN(c3cnc(N4CCN(C5COC5)CC4)nc3)CC2)nc1 [Example 9]	0.1 to 1 µM
COC1CC2CCC(C1)N2c1ncc(OC/C(=C/F)CN)cn1 (centres unmarked) [Example 12]	> 1 µM

Next, consider the following compound.
May I ask what IC50 has been recorded for COC1CC2CC1CN2c1ncc(OC/C(=C/F)CN)cn1 (centres unmarked) [Example 2] ? > 1 µM

====

Biological target: Recombinant human AOC2 protein (Homo sapiens, UniProt O75106)
Construct: Eli Lilly (provided, not a catalogue product)
Sequence (O75106 1-756): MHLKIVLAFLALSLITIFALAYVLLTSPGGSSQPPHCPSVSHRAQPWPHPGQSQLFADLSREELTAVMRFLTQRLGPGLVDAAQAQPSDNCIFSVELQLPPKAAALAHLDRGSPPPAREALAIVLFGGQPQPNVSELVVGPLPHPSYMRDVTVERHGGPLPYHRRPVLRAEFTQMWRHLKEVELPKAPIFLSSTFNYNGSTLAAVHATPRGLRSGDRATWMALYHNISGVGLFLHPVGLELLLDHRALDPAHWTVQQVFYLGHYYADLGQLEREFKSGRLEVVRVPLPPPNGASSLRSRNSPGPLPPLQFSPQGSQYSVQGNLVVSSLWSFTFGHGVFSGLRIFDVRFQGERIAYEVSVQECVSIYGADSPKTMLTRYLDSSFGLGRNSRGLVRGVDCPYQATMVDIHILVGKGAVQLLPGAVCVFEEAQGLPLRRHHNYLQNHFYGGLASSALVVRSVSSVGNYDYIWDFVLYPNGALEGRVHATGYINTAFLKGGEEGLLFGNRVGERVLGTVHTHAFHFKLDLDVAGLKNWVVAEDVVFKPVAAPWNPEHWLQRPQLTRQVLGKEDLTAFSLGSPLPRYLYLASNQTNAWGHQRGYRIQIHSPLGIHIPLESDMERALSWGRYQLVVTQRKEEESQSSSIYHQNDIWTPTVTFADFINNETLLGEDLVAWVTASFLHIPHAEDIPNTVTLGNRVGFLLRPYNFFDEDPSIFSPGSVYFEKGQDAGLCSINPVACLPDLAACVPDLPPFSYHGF
Test: Inhibitory activity on AOC2
pIC50: −log10 of the molar value.
Listing of recorded pIC50 by entry.

These recorded examples may help you get a feel for the data.
NC/C(=C/F)COc1cnc(N2CCN(C3COC3)CC2)nc1 [Example 8]	< 6.00
CC1(C)CN(C2COC2)CCN1c1ncc(OC/C(=C/F)CN)cn1 [Example 5]	6.00 to 7.00
NC/C(=C\F)COc1cnc(N2CC3CCC(C2)N3C2COC2)nc1 [Example 6]	6.00 to 7.00
CC1CN(c2ncc(OC/C(=C/F)CN)cn2)CC(C)N1C1COC1 (stereo not drawn) [Example 1]	6.00 to 7.00
N#Cc1cc(OC/C(=C/F)CN)cnc1N1CCN(C2COC2)CC1 [Example 7]	< 6.00

Next, consider the following molecule.
Hello, I am looking for reported pIC50 with Recombinant human AOC2 protein (Homo sapiens, UniProt O75106) for CC1(C)CN(c2ncc(OC/C(=C/F)CN)cn2)CCN1C1COC1 [Example 10] . Could you help? < 6.00

====

Biological target: mouse SSAO protein (Mus musculus, UniProt O70423)
Sequence (O70423 1-765): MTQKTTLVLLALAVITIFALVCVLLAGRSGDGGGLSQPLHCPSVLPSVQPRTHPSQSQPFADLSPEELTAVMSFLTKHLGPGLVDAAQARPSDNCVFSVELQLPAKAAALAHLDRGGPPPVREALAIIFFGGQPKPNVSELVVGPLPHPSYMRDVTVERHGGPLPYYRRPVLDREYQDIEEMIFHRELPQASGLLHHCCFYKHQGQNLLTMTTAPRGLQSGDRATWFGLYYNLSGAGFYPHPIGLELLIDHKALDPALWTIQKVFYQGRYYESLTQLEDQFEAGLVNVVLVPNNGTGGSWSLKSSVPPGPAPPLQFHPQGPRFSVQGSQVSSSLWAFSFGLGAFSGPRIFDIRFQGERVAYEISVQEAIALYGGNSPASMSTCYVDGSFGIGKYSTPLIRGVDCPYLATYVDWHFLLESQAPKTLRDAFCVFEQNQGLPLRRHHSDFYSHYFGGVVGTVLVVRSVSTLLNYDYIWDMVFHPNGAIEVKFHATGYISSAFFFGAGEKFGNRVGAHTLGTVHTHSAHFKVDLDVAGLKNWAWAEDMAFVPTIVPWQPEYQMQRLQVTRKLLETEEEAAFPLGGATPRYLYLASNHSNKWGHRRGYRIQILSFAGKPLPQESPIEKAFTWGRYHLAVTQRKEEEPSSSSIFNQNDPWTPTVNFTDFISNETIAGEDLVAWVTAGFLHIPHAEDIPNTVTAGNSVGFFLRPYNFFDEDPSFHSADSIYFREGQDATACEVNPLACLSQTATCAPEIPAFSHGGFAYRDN
measurementType: IC50

May I ask what IC50 has been recorded for COC1CC2CCC(C1)N2c1ncc(OC/C(=C/F)CN)cn1 (stereo not shown) [Example 12] ? < 100 nM
